Reference source for all entries: patent US20250084172A1

# SYSTEM: T1, human soluble ULBP6 haplotype 02 (hULBP6_02) (human, UniProt Q5VY80 26-218)
# T1 construct: also called sULBP6_02
# T1 chain: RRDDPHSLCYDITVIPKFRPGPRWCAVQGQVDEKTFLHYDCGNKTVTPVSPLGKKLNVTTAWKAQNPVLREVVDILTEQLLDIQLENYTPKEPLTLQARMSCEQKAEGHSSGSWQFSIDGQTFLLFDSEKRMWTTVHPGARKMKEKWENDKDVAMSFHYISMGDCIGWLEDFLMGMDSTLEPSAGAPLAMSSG
# TEST DETAILS: SPR (BIACORE 8K, 37 C); antibody captured on Protein A, soluble ULBP injected;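 note: ligand injected as threefold dilution series in HBS-P (highest 10 or 50 nM), reference-cell and buffer-subtracted sensorgrams fitted with a 1:1 Langmuir model for on and off rates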
The entries below are paired with their reported kon.
METRIC: kon (M⁻¹ s⁻¹)

[
  {
    "BINDER": "humanized 6E1 (h6E1), Fc version not stated (antibody, V domains shown, Recombinant humanized antibody, hIgG1 backbone with kappa light chain; also called hu6E1; PUR3993) VH: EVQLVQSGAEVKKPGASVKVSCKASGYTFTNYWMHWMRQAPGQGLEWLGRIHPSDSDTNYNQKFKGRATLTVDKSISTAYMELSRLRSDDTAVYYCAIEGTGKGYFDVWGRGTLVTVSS VL: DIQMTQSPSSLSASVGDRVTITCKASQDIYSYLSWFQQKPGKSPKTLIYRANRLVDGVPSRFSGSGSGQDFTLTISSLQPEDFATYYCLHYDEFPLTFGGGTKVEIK",
    "METRIC": "kon",
    "OBS VALUE": "7.07e+06"
  },
  {
    "BINDER": "humanized 1D4 (h1D4), Fc version not stated (antibody, V domains shown, Recombinant humanized antibody, hIgG1 backbone with kappa light chain; also called hiD4; hu1D4) VH: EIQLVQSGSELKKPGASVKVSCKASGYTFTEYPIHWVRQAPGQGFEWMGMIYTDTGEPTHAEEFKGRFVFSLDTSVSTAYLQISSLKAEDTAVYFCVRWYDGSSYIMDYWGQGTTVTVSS VL: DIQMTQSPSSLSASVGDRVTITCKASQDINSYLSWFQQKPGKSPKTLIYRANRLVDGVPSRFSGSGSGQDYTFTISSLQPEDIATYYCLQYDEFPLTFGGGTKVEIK",
    "METRIC": "kon",
    "OBS VALUE": "1.64e+06"
  },
  {
    "BINDER": "humanized 7B3 (h7B3), Fc version not stated (antibody, V domains shown, Recombinant humanized antibody, hIgG1 backbone with kappa light chain; also called hu7B3; PUR3922) VH: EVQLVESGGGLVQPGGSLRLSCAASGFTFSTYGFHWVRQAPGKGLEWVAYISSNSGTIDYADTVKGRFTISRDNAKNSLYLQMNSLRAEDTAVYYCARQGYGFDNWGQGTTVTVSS VL: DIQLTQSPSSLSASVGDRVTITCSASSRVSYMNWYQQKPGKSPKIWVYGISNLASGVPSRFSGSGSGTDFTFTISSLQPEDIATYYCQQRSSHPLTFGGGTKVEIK",
    "METRIC": "kon",
    "OBS VALUE": "1.48e+06"
  },
  {
    "BINDER": "humanized 8E11 (h8E11), Fc version not stated (antibody, V domains shown, Recombinant humanized antibody, hIgG1 backbone with kappa light chain; also called PUR3926) VH: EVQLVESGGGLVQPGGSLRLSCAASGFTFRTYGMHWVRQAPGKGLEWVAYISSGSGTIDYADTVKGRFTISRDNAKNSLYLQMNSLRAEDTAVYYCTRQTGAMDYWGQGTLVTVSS VL: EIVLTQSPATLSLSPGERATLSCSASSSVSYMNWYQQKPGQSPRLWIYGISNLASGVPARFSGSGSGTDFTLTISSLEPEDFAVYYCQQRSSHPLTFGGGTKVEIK",
    "METRIC": "kon",
    "OBS VALUE": "1.2e+06"
  }
]
